tested on: P. falciparum 7G8^7G8+F145I parasite line; assay: Parasite drug susceptibility assay; assay type: cell-based, Plasmodium falciparum; settings: 72 h, asynchronous asexual blood stages
pIC50: −log10 of the molar value.
readout type: pIC50

[
  {
    "compound": "CCNCCCC(C)Nc1ccnc2cc(Cl)ccc12 (stereo not shown) [md-CQ, monodesethyl-chloroquine]",
    "meas value": 7.32
  }
]

----------
Biological target: PfCRT 7G8+C350R (Plasmodium falciparum, UniProt W7FI62, C350R)
Sequence (W7FI62 1-424 C350R): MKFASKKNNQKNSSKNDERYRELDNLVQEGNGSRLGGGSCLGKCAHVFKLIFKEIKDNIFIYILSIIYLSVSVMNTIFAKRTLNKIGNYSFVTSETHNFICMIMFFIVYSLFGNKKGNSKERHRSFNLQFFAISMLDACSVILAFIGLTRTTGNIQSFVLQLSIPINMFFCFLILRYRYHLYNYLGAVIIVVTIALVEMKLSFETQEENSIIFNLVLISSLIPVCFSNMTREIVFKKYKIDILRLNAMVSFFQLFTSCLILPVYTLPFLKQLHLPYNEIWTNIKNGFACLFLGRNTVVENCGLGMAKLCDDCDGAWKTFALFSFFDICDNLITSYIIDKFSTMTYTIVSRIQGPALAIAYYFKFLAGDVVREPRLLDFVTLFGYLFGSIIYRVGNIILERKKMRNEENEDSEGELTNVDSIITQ
Experiment: Equilibrium dialysis binding, PfCRT variant in nanodiscs
Details: Kd, binding at pH 5.5, equilibrium dialysis, pH 5.5
pKd: −log10 of the molar value.
Items are presented alongside their recorded pKd.

[
  {
    "compound": "CCN(CC)CCCC(C)Nc1ccnc2cc(Cl)ccc12 (centres unmarked) [CQ, chloroquine]",
    "assay system": "PfCRT 7G8+C350R (Plasmodium falciparum, UniProt W7FI62, C350R)",
    "pKd": 6.89
  },
  {
    "compound": "Clc1ccc2c(N3CCN(CCCN4CCN(c5ccnc6cc(Cl)ccc56)CC4)CC3)ccnc2c1 [PPQ, piperaquine]",
    "assay system": "PfCRT 7G8+C350R (Plasmodium falciparum, UniProt W7FI62, C350R)",
    "pKd": 6.68
  }
]
